Taken from patent US20190284262A1.

- experimentalTarget: T1, HLA-A*02:01 on T2 cells alone (no peptide added) (human)
- T1 construct: TAP-deficient T2 cells without pulsed peptide; negative control target, and the HLA molecule whose stabilisation by peptides is read in the T2 stabilization assay; also called HLA-A*02 molecule; HLA-A2 molecule
- assayOverview: flow cytometry, phage on T2 without peptide; secondary only 121, unstained 106
measureName: Median:FITC-A
Simply state the number, no unit and no words.

**Query** Given the entry EXT017-9 scFv phage clone (scFv, also called phage clone #9) scFv: QSALTQPASASGSPGQSVTISCTGTSSDVGGYNYVSWYQQHPGKAPKLMIYEVSKRPSGVPDRFSGSKSGNTASLTVSGLQAEDEADYYCSSYAGSNNVVFGGGTKLTVLGSRGGGGSGGGGSGGGGSLEMAEVQLVQSGAEVKKPGASVKISCKASRYTFTNYYIHWVRQAPGQGLEWMGIINPSGGSTTYPQNFQGRLTMTRDTSTSTVYMELSSLRSEDTAMYYCARGWSGYDPGDFWGQGTLVTVSSTSGQAGQHHHHHHGAYPYDVPDYAS , report its measured Median:FITC-A.
**Result** 150
